As shown below, each of these binders has a reported Kd value.
target: T1, recombinant soluble human GARP-TGFβ1 complex (human, UniProt Q14392 20-628; P01137 30-390); assay: SPR (Biacore), hGARP-TGFβ1 immobilised
T1 construct: co-expressed in HEK293E, purified by the Strep-Tag; TGFβ consists of LAP and mature TGFβ; also called shGARP-TGFβ; rhGARP-TGFβ
T1 sequence (Q14392 other isoform, or with tags, fused parts or gaps limits assumed, chain 1 of 2): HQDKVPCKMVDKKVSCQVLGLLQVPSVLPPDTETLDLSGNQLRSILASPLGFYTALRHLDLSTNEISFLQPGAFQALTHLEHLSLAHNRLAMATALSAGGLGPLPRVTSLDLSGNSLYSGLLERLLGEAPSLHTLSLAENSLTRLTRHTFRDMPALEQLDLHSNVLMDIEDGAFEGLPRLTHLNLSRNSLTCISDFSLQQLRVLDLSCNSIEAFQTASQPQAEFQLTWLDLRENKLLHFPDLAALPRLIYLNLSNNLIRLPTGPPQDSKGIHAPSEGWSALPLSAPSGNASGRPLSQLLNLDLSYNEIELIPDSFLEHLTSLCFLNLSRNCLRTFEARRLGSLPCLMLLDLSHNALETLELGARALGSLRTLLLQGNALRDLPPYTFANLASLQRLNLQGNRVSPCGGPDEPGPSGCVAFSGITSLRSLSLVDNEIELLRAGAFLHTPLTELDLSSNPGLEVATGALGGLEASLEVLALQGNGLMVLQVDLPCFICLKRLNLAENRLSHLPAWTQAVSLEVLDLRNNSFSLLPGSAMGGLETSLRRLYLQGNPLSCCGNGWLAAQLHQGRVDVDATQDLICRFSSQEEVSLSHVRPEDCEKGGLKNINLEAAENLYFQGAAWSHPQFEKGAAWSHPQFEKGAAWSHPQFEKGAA
T1 sequence (P01137 30-390 limits assumed, chain 2 of 2): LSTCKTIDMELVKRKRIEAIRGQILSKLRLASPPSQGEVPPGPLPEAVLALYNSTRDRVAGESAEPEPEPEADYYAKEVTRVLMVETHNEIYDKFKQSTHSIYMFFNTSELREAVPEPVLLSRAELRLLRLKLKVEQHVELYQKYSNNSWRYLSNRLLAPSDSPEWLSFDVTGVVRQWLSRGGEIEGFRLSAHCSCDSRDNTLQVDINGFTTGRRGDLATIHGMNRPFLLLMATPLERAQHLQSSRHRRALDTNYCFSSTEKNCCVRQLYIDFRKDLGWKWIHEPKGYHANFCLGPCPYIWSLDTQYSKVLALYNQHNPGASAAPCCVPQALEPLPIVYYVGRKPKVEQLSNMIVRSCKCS
Hi! Could you send only the number? It should be in nM, unit omitted.

INSERT INTO results (binder, result_value) VALUES
  ('LHG-10.3 (antibody, human IgG1, V domains shown, VK-shuffled variant of LHG-10, human IgG1) VH: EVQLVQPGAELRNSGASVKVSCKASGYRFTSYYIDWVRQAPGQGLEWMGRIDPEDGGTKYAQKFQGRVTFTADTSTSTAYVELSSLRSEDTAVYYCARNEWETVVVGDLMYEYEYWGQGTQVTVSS VL: DIQMTQSPSSLSASLGDRVTITCQASQSIVSYLAWYQQKPGQAPKLLIYGASRLQTGVPSRFSGSGSGTSFTLTISGLEAEDAGTYYCQQYASAPVTFGQGTGVELK', 0.0222);

We now examine a further binder.
QUERY: Name the recorded Kd of the binder listed here: LHG-10.4-D (antibody, human IgG1, V domains shown) VH: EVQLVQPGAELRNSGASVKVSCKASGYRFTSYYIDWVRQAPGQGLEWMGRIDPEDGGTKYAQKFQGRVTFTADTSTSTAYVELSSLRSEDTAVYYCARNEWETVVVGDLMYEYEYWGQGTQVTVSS VL: DIQMTQSPSSLSASLGDRVTITCQASQSISSYLAWYQQKPGQAPKLLIYGTSRLKTGVPSRFSGSGSGTSFTLTISGLEAEDAGTYYCQQYYSAPVTFGQGTKVELK
RESULT: 0.0327
